# Target system: substance P receptors on human cells of the IM9 line (Homo sapiens)
# Construct: in tests performed on the lymphoblastic cell line IM9; endogenous in cells
# Sequence (P25103 whole entry): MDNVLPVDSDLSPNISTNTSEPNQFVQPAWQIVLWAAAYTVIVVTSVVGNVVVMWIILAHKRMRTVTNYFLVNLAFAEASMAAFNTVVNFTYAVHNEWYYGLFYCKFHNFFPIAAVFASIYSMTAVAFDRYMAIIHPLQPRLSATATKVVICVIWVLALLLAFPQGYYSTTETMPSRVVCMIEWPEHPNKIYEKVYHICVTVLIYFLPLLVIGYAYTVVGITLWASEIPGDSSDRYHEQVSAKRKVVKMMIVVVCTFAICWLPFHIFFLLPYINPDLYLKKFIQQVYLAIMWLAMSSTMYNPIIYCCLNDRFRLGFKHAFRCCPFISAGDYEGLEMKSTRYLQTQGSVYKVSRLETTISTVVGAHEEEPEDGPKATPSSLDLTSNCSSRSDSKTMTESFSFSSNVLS
# Method description: antagonism of the binding of substance P to its receptor, lymphoblastic cell line IM9

| Molecule | Target system | Ki |
| --- | --- | --- |
| CC(C)Oc1cccc(CC(=O)N(C)CC(CCN2CCC(c3ccccc3)CC2)c2ccc(Cl)c(Cl)c2)c1 (stereo not shown) | substance P receptors on human cells of the IM9 line (Homo sapiens) | 0.3 to 0.6 nM |
